Molecular target: ApaH (bis(5′‐nucleosyl)‐tetraphosphatase) (Escherichia coli, UniProt P05637)
Sequence (P05637 whole entry): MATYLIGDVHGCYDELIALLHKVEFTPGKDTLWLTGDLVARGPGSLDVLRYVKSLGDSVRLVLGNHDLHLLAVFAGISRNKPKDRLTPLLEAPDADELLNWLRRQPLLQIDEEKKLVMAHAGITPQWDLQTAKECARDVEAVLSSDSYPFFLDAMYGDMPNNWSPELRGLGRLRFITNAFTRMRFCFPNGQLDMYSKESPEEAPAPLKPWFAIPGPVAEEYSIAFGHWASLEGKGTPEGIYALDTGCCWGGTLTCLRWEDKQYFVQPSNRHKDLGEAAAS
Assay: LC-MS assay of Ap4A hydrolysis by […] ApaH; pppGpp is also hydrolysed to pGpp (KM […])
Assay type: biochemical
quantity.kind: IC50 (µM)
// note: answer is a bare numeric in µM

Exercise: Please report the recorded IC50 for Nc1nc2c(ncn2[C@@H]2O[C@H](COP(=O)(O)OP(=O)(O)OP(=O)(O)O)[C@@H](OP(=O)(O)OP(=O)(O)O)[C@H]2O)c(=O)[nH]1 [pppGpp] .
Solution: 8

====

Molecular target: ApaH (bis(5′‐nucleosyl)‐tetraphosphatase) (Escherichia coli, UniProt P05637)
Assay: LC-MS assay of Ap4A hydrolysis by […] ApaH
Assay type: biochemical
quantity.kind: IC50
Answer with the number, then the unit.

Exercise: Please report the recorded IC50 for Nc1nc2c(ncn2[C@@H]2O[C@H](COP(=O)(O)OP(=O)(O)O)[C@@H](OP(=O)(O)OP(=O)(O)O)[C@H]2O)c(=O)[nH]1 [ppGpp] .
Solution: 21 µM

Ref: paper PMC9310846
